Target: T1, murine TIM-3 protein with hFc tag (mTIM-3-hFc protein) (mouse; human, UniProt Q8VIM0 29-191)
T1 construct: Made in HEK293 cells; also called mouse TIM-3 extracellular domain protein; not shown: human IgG Fc fragment (hFc) of the pCpC vector
T1 chain: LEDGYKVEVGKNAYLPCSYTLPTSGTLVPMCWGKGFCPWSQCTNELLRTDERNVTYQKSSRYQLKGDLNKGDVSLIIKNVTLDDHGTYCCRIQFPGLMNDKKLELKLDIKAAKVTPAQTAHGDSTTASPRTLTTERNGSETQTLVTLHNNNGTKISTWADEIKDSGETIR
Assay: ELISA, coated mTIM-3-hFc; antibody 0.0007 nM
METRIC_NAME: OD450
Please reply with the value in numeric form only.

Previously resolved entries follow.
INSERT INTO results (binder, metric_name, observed_measurement) VALUES
  ('134H3G6 (TIM-3 antibody purified from hybridoma, chimeric antibody of Example 2) (antibody, V domains shown, From hybridoma of Harbour H2L2 transgenic mice: human variable regions, rat constant regions) VH: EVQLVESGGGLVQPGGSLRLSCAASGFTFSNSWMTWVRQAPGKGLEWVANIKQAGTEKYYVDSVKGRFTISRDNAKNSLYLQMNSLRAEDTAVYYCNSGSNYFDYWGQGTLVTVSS VL: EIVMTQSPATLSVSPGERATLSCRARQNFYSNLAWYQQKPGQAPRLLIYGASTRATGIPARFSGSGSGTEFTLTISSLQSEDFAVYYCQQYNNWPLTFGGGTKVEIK', 'OD450', 0.62),
  ('57F4E5 (TIM-3 antibody purified from hybridoma, chimeric antibody of Example 2) (antibody, V domains shown, From hybridoma of Harbour H2L2 transgenic mice: human variable regions, rat constant regions) VH: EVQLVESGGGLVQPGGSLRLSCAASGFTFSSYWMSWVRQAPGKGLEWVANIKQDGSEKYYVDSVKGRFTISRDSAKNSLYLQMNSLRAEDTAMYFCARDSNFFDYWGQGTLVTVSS VL: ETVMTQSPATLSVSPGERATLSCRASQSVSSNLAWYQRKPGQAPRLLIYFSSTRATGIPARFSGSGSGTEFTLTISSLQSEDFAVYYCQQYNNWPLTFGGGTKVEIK', 'OD450', 0.67),
  ('39E5H1 (TIM-3 antibody purified from hybridoma, chimeric antibody of Example 2) (antibody, V domains shown, From hybridoma of Harbour H2L2 transgenic mice: human variable regions, rat constant regions) VH: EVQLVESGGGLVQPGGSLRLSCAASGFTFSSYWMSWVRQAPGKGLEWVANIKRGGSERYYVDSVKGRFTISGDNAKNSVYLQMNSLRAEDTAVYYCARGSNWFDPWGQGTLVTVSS VL: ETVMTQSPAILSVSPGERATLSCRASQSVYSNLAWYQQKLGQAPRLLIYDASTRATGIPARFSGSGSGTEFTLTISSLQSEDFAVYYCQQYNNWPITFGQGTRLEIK', 'OD450', 0.63),
  ('34B6D8 (TIM-3 antibody purified from hybridoma, chimeric antibody of Example 2) (antibody, V domains shown, From hybridoma of Harbour H2L2 transgenic mice: human variable regions, rat constant regions) VH: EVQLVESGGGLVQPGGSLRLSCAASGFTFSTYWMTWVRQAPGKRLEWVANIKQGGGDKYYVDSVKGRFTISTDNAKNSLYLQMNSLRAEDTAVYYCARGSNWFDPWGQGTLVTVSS VL: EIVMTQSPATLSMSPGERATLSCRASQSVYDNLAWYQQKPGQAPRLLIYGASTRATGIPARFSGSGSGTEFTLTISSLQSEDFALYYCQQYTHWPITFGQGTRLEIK', 'OD450', 0.65),
  ('7A4F10 (TIM-3 antibody purified from hybridoma, chimeric antibody of Example 2) (antibody, V domains shown, From hybridoma of Harbour H2L2 transgenic mice: human variable regions, rat constant regions) VH: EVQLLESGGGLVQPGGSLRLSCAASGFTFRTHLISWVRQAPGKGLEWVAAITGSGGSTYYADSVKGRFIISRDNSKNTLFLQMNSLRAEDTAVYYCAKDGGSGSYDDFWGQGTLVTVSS VL: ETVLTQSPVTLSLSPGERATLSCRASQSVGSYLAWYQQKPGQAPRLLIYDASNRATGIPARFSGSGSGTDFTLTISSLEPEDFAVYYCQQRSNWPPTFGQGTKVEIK', 'OD450', 0.64);

Continue with the binder presented below.
Exam item: # OD450 lookup, item 18D2H2 (TIM-3 antibody purified from hybridoma, chimeric antibody of Example 2) (antibody, V domains shown, From hybridoma of Harbour H2L2 transgenic mice: human variable regions, rat constant regions) VH: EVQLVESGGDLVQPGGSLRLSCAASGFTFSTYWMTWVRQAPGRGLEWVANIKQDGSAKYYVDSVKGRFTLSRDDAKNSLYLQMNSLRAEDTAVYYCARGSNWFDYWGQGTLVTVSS VL: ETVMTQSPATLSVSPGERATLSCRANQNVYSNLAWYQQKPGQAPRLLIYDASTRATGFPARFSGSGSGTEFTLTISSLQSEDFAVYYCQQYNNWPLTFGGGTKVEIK
Marked response: 0.64
